The reported measurements were obtained from ChEMBL document CHEMBL1201862.

- Test system: CAKI-1
- assay_text: NCI tumour cell line growth inhibition, 48 h
Activity calls are given as the source filed them. No stated cut-off is given here; in the data, active = GI50 up to about 1.1 µM and inactive = higher.
I would appreciate it if you answered using one of these outcomes: class 1 (active), class 0 (inactive)

Here are 8 compounds together with their reported answers.
[[record]]
compound = "O=S(=O)(CF)OCCCCOS(=O)(=O)CF"
class_label = "class 0"

[[record]]
compound = "Cc1cccc(CNc2[nH]cnc3nncc2-3)c1"
class_label = "class 0"

[[record]]
compound = "CN(C)CCCCCNc1c2ccccc2nc2cccc([N+](=O)[O-])c12"
class_label = "class 1"

[[record]]
compound = "Cc1cccc(C)c1NC(=O)CCC(=O)CC(=O)C(C)C"
class_label = "class 0"

[[record]]
compound = "O=C(CCCN1CCC2(CC1)CC(c1ccccc1)OC2=O)c1ccc(F)cc1 (stereo unspecified)"
class_label = "class 0"

[[record]]
compound = "Cn1c(=O)n2n(c1=O)[C@@H](c1ccccc1)[C@H]2c1ccccc1"
class_label = "class 0"

[[record]]
compound = "O=c1c2c3c(sc2nc2n1NC=NN2)CCCC3"
class_label = "class 0"

[[record]]
compound = "O=C(O)C(Cc1ccc(O)c([N+](=O)[O-])c1)N1C(=O)c2ccccc2C1=O (stereo unspecified)"
class_label = "class 0"


Query block: Short answer needed: outcome of this test for Cc1cccc(/C=N/NC(=S)Nc2ccccc2)n1 ?
Result block: class 0

Query block: Short answer needed: outcome of this test for CCCC(=O)OCC1OC(n2cc(F)c(=O)[nH]c2=O)CC1O (stereo unspecified) ?
Result block: class 1

Query block: Short answer needed: outcome of this test for Cc1cc(C[C@H]2O[C@@H]3OC(C)(C)O[C@@H]3[C@H]3OC(C)(C)O[C@H]32)c2ccccc2n1 ?
Result block: class 0

----------
- Test system: KM12
- assay_text: NCI tumour cell line growth inhibition, 48 h
Calls of active or inactive are those of the source. Cut-off read from the data, not from the text of the source: active = GI50 up to about 1.1 µM and inactive = higher.
assay_readout: GI50

# annotated cases, reported GI50 shown
[[record]]
compound = "CN(C)c1nc2n(CCO)ccnc-2c(=O)n1"
subject_of_test = "KM12"
experimental_value = "> 100 µM (inactive)"

[[record]]
compound = "Cc1ccc(C(=O)/C=C2\\Nc3ccccc3N=C2NC23CC4CC(CC(C4)C2)C3)cc1"
subject_of_test = "KM12"
experimental_value = "> 10 µM (inactive)"

[[record]]
compound = "O=C(CSc1nnc(Cc2ccccc2)o1)Nc1cccc([N+](=O)[O-])c1"
subject_of_test = "KM12"
experimental_value = "> 100 µM (inactive)"

[[record]]
compound = "COc1cc2c(cc1OC)C1=CCC(c3ccccc3)[N+]1(C)CC2 (configuration not stated)"
subject_of_test = "KM12"
experimental_value = "> 100 µM (inactive)"

[[record]]
compound = "COc1cc(C2C(Cl)C(=O)N2NC(=O)Cc2ccccc2)ccc1O (configuration not stated)"
subject_of_test = "KM12"
experimental_value = "91 µM (inactive)"


Parameter requested: GI50. Apply to each item below.
1. CC(C)c1cccc(C(C)C)c1NC(=S)Nc1ccccc1
2. CCOC(=O)c1c2ccccc2n2c(=O)n(C)nnc12

Result block:
["> 100 µM (inactive)", "> 100 µM (inactive)"]

----------
Exercise: state measured GI50 for each of the compounds provided.
- System: CAKI-1
- assay_text: NCI tumour cell line growth inhibition, 48 h
The source made the active and inactive calls. No stated cut-off is given here; in the data, active = GI50 up to about 1.1 µM and inactive = higher.

# annotated cases, reported GI50 shown
[[record]]
compound = "O=C1C2C3C=C4c5ccccc5N(c5ccccc5)C4(C2C(=O)N1c1ccc(Cl)cc1)[C@H]1C(=O)N(c2ccc(Cl)cc2)C(=O)[C@@H]31 (stereo not given in full)"
subject_of_test = "CAKI-1"
experimental_value = "14.7 µM (inactive)"

[[record]]
compound = "c1csc(-c2nccc3c2[nH]c2ccccc23)c1"
subject_of_test = "CAKI-1"
experimental_value = "27.4 µM (inactive)"


Parameter requested: GI50. Apply to each item below.
1. N#Cc1nnn(-c2ccccc2)c1O
2. CC(C)NC(=O)OCCN=c1c2ccccc2ccc2ccccc12
3. C[C@]1(O)CC[C@H]2[C@@H]3CCc4cc(O)ccc4[C@H]3CC[C@@]21C

Result block:
> 100 µM (inactive)
35.9 µM (inactive)
3.62 µM (inactive)

----------
Exercise: state measured GI50 for each of the compounds provided.
- System: SF-295
- assay_text: NCI tumour cell line growth inhibition, 48 h
Activity calls are given as the source filed them. Cut-off read from the data, not from the text of the source: active = GI50 up to about 1.1 µM and inactive = higher.

# annotated cases, reported GI50 shown
[[record]]
compound = "N#CC(c1ccc(Cl)cc1)c1cccc(Cl)n1 (stereo unspecified)"
experimental_value = "61.9 µM (inactive)"

[[record]]
compound = "Cc1cc(C)c2c(n1)S(=O)(=O)N(CCCN1CCN(c3cccc(Cl)c3)CC1)C(C(=O)c1ccccc1)=C2O"
experimental_value = "31.8 µM (inactive)"

[[record]]
compound = "Cc1ccc(C2SCc3nc4ccccc4n32)cc1 (stereo unspecified)"
experimental_value = "2.19 µM (inactive)"

[[record]]
compound = "COc1ccc2c(c1OC)OCC(CN(C)C)C2=O (stereo unspecified)"
experimental_value = "> 100 µM (inactive)"

[[record]]
compound = "Cc1ccccc1NC(=O)/C=N/O"
experimental_value = "> 100 µM (inactive)"


Query block: Would you mind telling me what GI50 value was observed for CCOC(=O)C1=C(C)NC(C)=C(C(=O)OCC)C1c1ccc(C)cc1 ?
Result block: 27.4 µM (inactive)

----------
- System: UO-31
- assay_text: NCI tumour cell line growth inhibition, 48 h
Active and inactive are the calls of the source. Cut-off read from the data, not from the text of the source: active = GI50 up to about 1.1 µM and inactive = higher.
assay_readout: GI50

[[record]]
molecule = "O=C1NC2CCCCC2N=C1CC(=O)c1ccc(Br)cc1 (configuration not stated)"
assay_readout = "GI50"
experimental_value = "3.86 µM (inactive)"

[[record]]
molecule = "COc1ccc(C2CC(=O)CC(c3ccc(OC)cc3)C23C(=O)NC(=O)NC3=O)cc1 (configuration not stated)"
assay_readout = "GI50"
experimental_value = "31.6 µM (inactive)"

[[record]]
molecule = "NC(=O)C1=C(c2ccccc2)c2ccccc2C1=O"
assay_readout = "GI50"
experimental_value = "18.8 µM (inactive)"


Parameter requested: GI50. Apply to each item below.
1. NC1=NN(c2ccccc2)C(=O)C1C(=O)CCC(=O)Nc1cccc(Cl)c1 (configuration not stated)
2. COc1ccc(OC)c(C23CCCC(C2)N(C)CC3)c1 (configuration not stated)
3. O=C1CC(c2ccc(Cl)cc2)Oc2ccccc21 (configuration not stated)
4. O=C[C@@H](CO)O[C@H](C=O)n1cnc2c(=O)nc[nH]c21
5. Cn1c(=O)c2nc(COCc3nc4c(=O)n(C)c(=O)n(C)c4[nH]3)[nH]c2n(C)c1=O
6. O=C1c2ccccc2-n2c1nc1ccc([N+](=O)[O-])cc1c2=O

Result block:
1: > 100 µM (inactive); 2: 28.6 µM (inactive); 3: 18.1 µM (inactive); 4: 401 µM (inactive); 5: > 100 µM (inactive); 6: 42.9 µM (inactive)

Parameter requested: GI50. Apply to each item below.
1. COc1ccc2c(c1OC)OC[C@@H](C1=CC(=O)C=C(O)C1=O)C2
2. C/C=C1/CN2CCC3(O)c4ccccc4N4C=C(C(=O)OC)C1CC2C43O (configuration not stated)
3. O=c1c2cc(I)ccc2nc(S)n1Cc1ccccc1
4. COc1ccc2nc(NCN3C(=O)c4ccccc4C3=O)sc2c1
5. COC1CCC(OS(C)(=O)=O)C(CO)O1 (configuration not stated)
6. C[N+](C)(C)CC(=O)N/N=C(\CCC(=O)NCCc1ccccc1)CC(=O)c1ccccc1
7. O=C1C2C3C=C4c5ccccc5N(c5ccccc5)C4(C2C(=O)N1c1ccc(Cl)cc1)[C@H]1C(=O)N(c2ccc(Cl)cc2)C(=O)[C@@H]31 (some centres not stated)

Result block:
1: 12.6 µM (inactive); 2: > 100 µM (inactive); 3: 0.543 µM (active); 4: > 100 µM (inactive); 5: > 100 µM (inactive); 6: > 100 µM (inactive); 7: > 100 µM (inactive)

Parameter requested: GI50. Apply to each item below.
1. Cc1cc(NS(=O)(=O)c2ccc(NC(=O)COC(=O)c3cccc4c(=O)c5ccccc5[nH]c34)cc2)no1
2. COc1cc(CCc2cccnc2)cc(OC)c1OC
3. CC1OC(n2cc(C(F)(F)F)c(=O)[nH]c2=O)C=CC1=O (configuration not stated)
4. COc1ccc(C2OC(c3ccncc3)=NN2C)cc1F (configuration not stated)
5. COc1ccc(C2CC3(c4ccccc4)ON=C(c4ccccc4)N3c3ccccc3S2)cc1 (configuration not stated)
6. O=C(O)CN1C=C(C(=O)c2cc3ccccc3n2S(=O)(=O)c2ccccc2)CCC1

Result block:
["> 100 µM (inactive)", "> 100 µM (inactive)", "18.2 µM (inactive)", "> 100 µM (inactive)", "51.2 µM (inactive)", "30.4 µM (inactive)"]
